Data provenance: paper PMC4877006

Molecular target: c-Src L32V (SH3 domain) (Gallus gallus, UniProt P00523, L100V/Q128R)
Construct: The plasmid pET15b containing the chicken c-Src-SH3 domain gene; made in house
Test: Fluorescence titration binding of peptide RLP2 to c-Src SH3 L32V
Design: species or system chicken
Settings: fluorescence titration only, 25 °C; L32V; read-out: Kd (25 ºC)
Experimental Endpoint: pKd
pKd (log units): -log10 of the concentration in mol/L.

Q: // query pKd value for entry Ac-RALPPLPRY-NH2 [RLP2, Ac-RALPPLPRY-NH2]
Result: 3.57

====

Target: c-Src F18L (SH3 domain) (Gallus gallus, UniProt P00523, F86L/Q128R)
Construct: The plasmid pET15b containing the chicken c-Src-SH3 domain gene; made in house
Assay: ITC binding of peptide RLP2 to c-Src SH3 F18L
Set-up: species or system chicken
Details: ITC, 25 °C; RLP2 about 2 mM titrated into SH3 (50-122 μM); F18L; read-out: Kd (25 ºC)
Experimental Endpoint: Kd (µM)
Expressed in µM, but write only the number.

Q: // query Kd value for entry Ac-RALPPLPRY-NH2 [RLP2, Ac-RALPPLPRY-NH2]
Result: 13.5

====

Molecular target: c-Src F18W (SH3 domain) (Gallus gallus, UniProt P00523, F86W)
Construct: The plasmid pET15b containing the chicken c-Src-SH3 domain gene; made in house
Assay: ITC binding of peptide RLP2 to c-Src SH3 F18W
Parameters: species or system chicken
Settings: ITC, 25 °C; RLP2 about 2 mM titrated into SH3 (50-122 μM); F18W; read-out: Kd (25 ºC)
Experimental Endpoint: pKd
pKd (log units): -log10 of the concentration in mol/L.

Q: // query pKd value for entry Ac-RALPPLPRY-NH2 [RLP2, Ac-RALPPLPRY-NH2]
Result: 4.69

====

Target: c- Src I77V (SH3 domain) (Gallus gallus, UniProt P00523, I132V)
Construct: The plasmid pET15b containing the chicken c-Src-SH3 domain gene; made in house
Assay: ITC binding of peptide RLP2 to c-Src SH3 I77V
Parameters: species or system chicken
Settings: ITC, 25 °C; RLP2 about 2 mM titrated into SH3 (50-122 μM); I77V; read-out: Kd (25 ºC)
Experimental Endpoint: Kd
Respond with the figure and its unit, in that order.

Q: // query Kd value for entry Ac-RALPPLPRY-NH2 [RLP2, Ac-RALPPLPRY-NH2]
Result: 15.5 µM

====

Target: c-Src L40I (SH3 domain) (Gallus gallus, UniProt P00523, L108I)
Construct: The plasmid pET15b containing the chicken c-Src-SH3 domain gene; made in house
Assay: ITC binding of peptide RLP2 to c-Src SH3 L40I
Set-up: species or system chicken
Conditions: ITC, 25 °C; RLP2 about 2 mM titrated into SH3 (50-122 μM); L40I; read-out: Kd (25 ºC)
Experimental Endpoint: Kd (µM)
Expressed in µM, but write only the number.

Q: // query Kd value for entry Ac-RALPPLPRY-NH2 [RLP2, Ac-RALPPLPRY-NH2]
Result: 20.6

====

Target: c-Src S26A (SH3 domain)
Test: ITC binding of peptide RLP2 to c-Src SH3 S26A
Set-up: species or system chicken
Settings: ITC, 25 °C; RLP2 about 2 mM titrated into SH3 (50-122 μM); S26A (control); read-out: Kd (25 ºC)
Experimental Endpoint: pKd
pKd (log units): -log10 of the concentration in mol/L.

Q: // query pKd value for entry Ac-RALPPLPRY-NH2 [RLP2, Ac-RALPPLPRY-NH2]
Result: 4.73

====

Biological target: c-Src N45S (SH3 domain) (Gallus gallus, UniProt P00523, N113S)
Construct: The plasmid pET15b containing the chicken c-Src-SH3 domain gene; made in house
Assay: ITC binding of peptide RLP2 to c-Src SH3 N45S
Set-up: species or system chicken
Settings: ITC, 25 °C; RLP2 about 2 mM titrated into SH3 (50-122 μM); N45S; read-out: Kd (25 ºC)
Experimental Endpoint: pKd
pKd (log units): -log10 of the concentration in mol/L.

Q: // query pKd value for entry Ac-RALPPLPRY-NH2 [RLP2, Ac-RALPPLPRY-NH2]
Result: 4.72
